experimental.system: Phosphatidylinositol 5-phosphate 4-kinase type-2 alpha (Homo sapiens) (UniProt P48426)
Sequence (P48426 whole entry, looked up): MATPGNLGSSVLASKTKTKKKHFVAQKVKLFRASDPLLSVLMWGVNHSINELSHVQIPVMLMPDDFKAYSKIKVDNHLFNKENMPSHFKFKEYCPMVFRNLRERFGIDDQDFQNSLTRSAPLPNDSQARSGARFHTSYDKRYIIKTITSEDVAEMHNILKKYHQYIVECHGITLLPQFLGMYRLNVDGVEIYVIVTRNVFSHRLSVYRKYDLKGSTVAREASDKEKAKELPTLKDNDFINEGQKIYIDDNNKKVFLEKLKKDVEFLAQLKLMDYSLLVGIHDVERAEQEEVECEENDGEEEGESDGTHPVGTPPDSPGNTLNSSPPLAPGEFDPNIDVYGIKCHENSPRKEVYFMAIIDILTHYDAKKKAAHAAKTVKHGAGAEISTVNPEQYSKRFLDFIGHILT
assay.summary: qHTS for Inhibitors of phosphatidylinositol 5-phosphate 4-kinase (PI5P4K); further: value at the top dose of about 77 µM
details: PI5P4Kalpha enzyme, ADP-Glo luminescence, 60 min
In all, about 330,000 compounds went through this assay and about 4,100 (1.2%) were called active. Inconclusive results (about 2%) are left out. How the source made its calls: active means max response of -50% or lower; inconclusive means between -30% and -50%; inactive means -30% or higher. This excerpt belongs to a sample that is enriched for actives.
Please answer using one outcome listed in active, inactive

Would you please look over these solved cases?
compound=O=C(COC(=O)c1ccccc1O)NCc1ccco1 experimental_system="Phosphatidylinositol 5-phosphate 4-kinase type-2 alpha (Homo sapiens) (UniProt P48426)" label_value=active
compound="CC1=C(C(=O)N2CCOCC2)CC(CC(=O)NCCCN(C)C)C(=O)N1Cc1ccc(C(C)(C)C)cc1 (stereo not drawn)" experimental_system="Phosphatidylinositol 5-phosphate 4-kinase type-2 alpha (Homo sapiens) (UniProt P48426)" label_value=inactive
compound=COC(=O)C[C@H]1C=C[C@@H](NS(=O)(=O)c2ccc(C)cc2)[C@@H](CO)O1 experimental_system="Phosphatidylinositol 5-phosphate 4-kinase type-2 alpha (Homo sapiens) (UniProt P48426)" label_value=inactive
compound=CCOC(=O)N1CCN(C(=O)C[C@@H]2C[C@@]3(C(=O)OC)CC(C)(C)CC=C3N(Cc3ccco3)C2=O)CC1 experimental_system="Phosphatidylinositol 5-phosphate 4-kinase type-2 alpha (Homo sapiens) (UniProt P48426)" label_value=inactive
compound="O=C(Nc1ccc(Cl)cc1)C1Cc2c(-c3ccc4c(c3)OCO4)ccnc2O1 (stereo not drawn)" experimental_system="Phosphatidylinositol 5-phosphate 4-kinase type-2 alpha (Homo sapiens) (UniProt P48426)" label_value=inactive
compound=O=c1[nH]n(-c2ccc([N+](=O)[O-])cc2)c(=O)c2ccccc12 experimental_system="Phosphatidylinositol 5-phosphate 4-kinase type-2 alpha (Homo sapiens) (UniProt P48426)" label_value=active
compound=Cc1nn(C)cc1/C=C1\CCC/C(=C\c2cn(C)nc2C)C1=O experimental_system="Phosphatidylinositol 5-phosphate 4-kinase type-2 alpha (Homo sapiens) (UniProt P48426)" label_value=inactive
compound="CCCCCNC(=O)C(c1ccc(OC)cc1)n1c(=O)c(-c2ccccc2)nc2ccccc21 (stereo not drawn)" experimental_system="Phosphatidylinositol 5-phosphate 4-kinase type-2 alpha (Homo sapiens) (UniProt P48426)" label_value=inactive
compound="O=C1NC(O)CCN1C1CC(O)C(CO)O1 (stereo not drawn)" experimental_system="Phosphatidylinositol 5-phosphate 4-kinase type-2 alpha (Homo sapiens) (UniProt P48426)" label_value=inactive
compound="CCC(C(=O)Nc1c(C)cccc1C)n1c(-c2cc(C)cs2)nc2ccccc21 (stereo not drawn)" experimental_system="Phosphatidylinositol 5-phosphate 4-kinase type-2 alpha (Homo sapiens) (UniProt P48426)" label_value=inactive

Record lookup: outcome of this test for CS(=O)(=O)c1ccc2nc(NC(=O)c3ccc(Cl)nc3)sc2c1 ?
inactive

Record lookup: outcome of this test for N#Cc1cccc(NC(=O)c2cc(C3CCCCN3C(=O)CCc3ccccc3)on2)c1 (stereo not drawn) ?
inactive

Record lookup: outcome of this test for Nc1ncnc2c1ncn2[C@@H]1O[C@H](C(=O)N2CCCN(Cc3ccccc3F)CC2)[C@@H](O)[C@H]1O ?
inactive
